Every entry's value here was drawn from paper PMC9352680.

Molecular target: T1, PUF4 RNA-binding domain (Saccharomyces cerevisiae, UniProt P25339 537-888)
T1 sequence: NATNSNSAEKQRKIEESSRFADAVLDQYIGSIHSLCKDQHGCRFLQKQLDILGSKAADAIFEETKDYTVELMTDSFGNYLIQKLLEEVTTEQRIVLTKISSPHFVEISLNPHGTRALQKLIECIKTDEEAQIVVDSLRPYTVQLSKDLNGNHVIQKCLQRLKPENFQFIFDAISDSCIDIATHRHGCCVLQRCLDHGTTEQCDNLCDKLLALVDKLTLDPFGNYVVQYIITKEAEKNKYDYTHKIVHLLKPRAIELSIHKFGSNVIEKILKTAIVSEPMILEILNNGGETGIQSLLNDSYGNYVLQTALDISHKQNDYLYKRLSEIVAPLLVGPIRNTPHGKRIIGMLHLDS
Experiment: Mg; RNA-MaP; 20 mM Na-HEPES pH 7.4, 30 mM KOAc, 0.75 mM MgCl2, 0.1% Tween-20, 5% glycerol, 0.1 mg/mL BSA, 2 mM DTT; 25 C; 0.0125-409.6 nM protein
Details: tags: N-His6-TEV cleaved; C-SNAP kept, Cy3B-labelled; label: tethered on chip by stalled RNA polymerase
Rule: measured Kd below 0.02 µM gets Fulfilled; anything equal to or greater than 0.02 µM gets Not fulfilled.

Request: is_below(Kd, 0.02 µM) for ACAAACACUAUAUUAUUACGACAAAC (ssRNA) [Id_ii_S3_P5E.3_K5.2_C5.2_[C-2A]_[T-1C]_H5.2_A5.1_F5.1_T5.2_[T11C]_[A12G]] ?
Response: Not fulfilled

Request: Next record, please: ACAAACAAACACUAUUAACACAAAC (ssRNA) [Id_ii_S3_P4E.4_K4.3_C4.2_[C-2A]_[T-1A]_H4.3_A4.1_F4.1_T4.2_[G10A]_[T11C]]
Response: Not fulfilled

Request: Another binder to check: UCUCUUUGUAUGGCAUUCUCUU (ssRNA) [Ic_S1_P5E.1_K5.1_C5.1_H5.1_A5.1_[T6G]_[A7G]_F5.1_[T8C]_[T9A]_[A10T]_T5.1]
Response: Not fulfilled

Others:
Request: Regarding UCUCUUUGACACUAUUACCUCUCUU (ssRNA) [Id_ii_S1_P4E.4_K4.3_C4.2_[C-2T]_[T-1G]_H4.3_A4.1_F4.1_T4.2_[G10C]_[T11C]] , kindly confirm whether its Kd is beneath 0.02 µM.
Response: Not fulfilled

Request: And what about the binder UCUCUUUCGUGUAAAUAUAUCUCUU (ssRNA) [Id_iii_S1_P3E.8_K3.4_C3.3_[T-1G]_H3.1_A3.2_F3.1_T3.2] ?
Response: Fulfilled

Request: What do you get for UCUCUUUCUUGUAAUAAAAAAUCUCUU (ssRNA) [Id_iii_S1_P5E.9_K5.5_C5.3_H5.1_A5.2_F5.2_T5.2_[T11A]] ?
Response: Not fulfilled

Request: Try this binder next: UCUCUUUGUAUAUUACCUCUCUU (ssRNA) [Ie_S1_P4E.1_K4.1_C4.1_H4.1_A4.1_F4.1_[+9CC]_T4.1]
Response: Fulfilled
